Test: Experiment 3: surface microhardness recovery of demineralised enamel, aspartic acid combined with different calcium sources
Parameters: species or system bovine
Conditions: single treatment 16 hours at 37°C; solutions pH 6 to 6.5 (excluding controls); n=10
measured_attribute: Mean %SMHR Value

Here's what some known entries look like.
| molecule | measured_attribute | test_result |
| --- | --- | --- |
| [F-].[Na+] [1450 ppm F, Sodium Fluoride, reference compound] | Mean %SMHR Value | 5.15% |
| N[C@@H](CC(=O)O)C(=O)O [Aspartic acid 0,2% in artificial saliva, Aspartic acid] | Mean %SMHR Value | 16,21% |
| N[C@@H](CC(=O)O)C(=O)O [Aspartic acid 0.4 %, Aspartic acid] | Mean %SMHR Value | -91.74% |
| N[C@@H](CC(=O)O)C(=O)O [Aspartic acid 0.2 % in distilled water, Aspartic acid] | Mean %SMHR Value | -87.69% |

Now take the following molecule into account.
The reported value for N[C@@H](CC(=O)O)C(=O)O [Aspartic acid 0.05 %, Aspartic acid] in terms of Mean %SMHR Value is -35.13%
